Target: JAK3/JAK1 (Homo sapiens, UniProt P23458+P52333)
Sequence (P52333 whole entry): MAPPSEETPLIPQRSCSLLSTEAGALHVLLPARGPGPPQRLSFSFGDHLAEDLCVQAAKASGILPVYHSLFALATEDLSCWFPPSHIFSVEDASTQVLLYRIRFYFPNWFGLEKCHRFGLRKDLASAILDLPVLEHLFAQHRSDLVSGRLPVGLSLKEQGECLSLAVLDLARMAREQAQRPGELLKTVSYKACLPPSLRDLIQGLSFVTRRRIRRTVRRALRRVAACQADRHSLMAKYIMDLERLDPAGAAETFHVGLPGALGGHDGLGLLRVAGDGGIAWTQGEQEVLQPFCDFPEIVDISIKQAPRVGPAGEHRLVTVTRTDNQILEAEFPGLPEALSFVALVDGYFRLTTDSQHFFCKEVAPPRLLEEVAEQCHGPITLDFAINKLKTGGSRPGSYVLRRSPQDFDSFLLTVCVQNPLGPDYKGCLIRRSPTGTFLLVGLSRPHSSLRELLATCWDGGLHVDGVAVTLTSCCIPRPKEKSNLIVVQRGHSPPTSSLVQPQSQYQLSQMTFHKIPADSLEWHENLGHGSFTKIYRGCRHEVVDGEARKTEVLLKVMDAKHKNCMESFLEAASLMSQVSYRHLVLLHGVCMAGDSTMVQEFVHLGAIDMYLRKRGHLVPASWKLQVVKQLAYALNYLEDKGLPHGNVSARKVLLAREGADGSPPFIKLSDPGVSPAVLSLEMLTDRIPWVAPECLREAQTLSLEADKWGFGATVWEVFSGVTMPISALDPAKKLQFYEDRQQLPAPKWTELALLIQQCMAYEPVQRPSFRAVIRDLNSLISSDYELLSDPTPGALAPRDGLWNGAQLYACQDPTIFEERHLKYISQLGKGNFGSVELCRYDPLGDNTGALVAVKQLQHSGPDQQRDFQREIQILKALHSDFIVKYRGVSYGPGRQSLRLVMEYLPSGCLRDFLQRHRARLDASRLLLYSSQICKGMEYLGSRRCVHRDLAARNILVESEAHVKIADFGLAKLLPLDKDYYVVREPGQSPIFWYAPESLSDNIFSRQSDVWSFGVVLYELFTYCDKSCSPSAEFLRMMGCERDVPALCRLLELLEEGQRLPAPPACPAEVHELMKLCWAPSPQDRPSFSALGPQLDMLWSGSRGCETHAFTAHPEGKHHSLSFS
Sequence (P23458 whole entry): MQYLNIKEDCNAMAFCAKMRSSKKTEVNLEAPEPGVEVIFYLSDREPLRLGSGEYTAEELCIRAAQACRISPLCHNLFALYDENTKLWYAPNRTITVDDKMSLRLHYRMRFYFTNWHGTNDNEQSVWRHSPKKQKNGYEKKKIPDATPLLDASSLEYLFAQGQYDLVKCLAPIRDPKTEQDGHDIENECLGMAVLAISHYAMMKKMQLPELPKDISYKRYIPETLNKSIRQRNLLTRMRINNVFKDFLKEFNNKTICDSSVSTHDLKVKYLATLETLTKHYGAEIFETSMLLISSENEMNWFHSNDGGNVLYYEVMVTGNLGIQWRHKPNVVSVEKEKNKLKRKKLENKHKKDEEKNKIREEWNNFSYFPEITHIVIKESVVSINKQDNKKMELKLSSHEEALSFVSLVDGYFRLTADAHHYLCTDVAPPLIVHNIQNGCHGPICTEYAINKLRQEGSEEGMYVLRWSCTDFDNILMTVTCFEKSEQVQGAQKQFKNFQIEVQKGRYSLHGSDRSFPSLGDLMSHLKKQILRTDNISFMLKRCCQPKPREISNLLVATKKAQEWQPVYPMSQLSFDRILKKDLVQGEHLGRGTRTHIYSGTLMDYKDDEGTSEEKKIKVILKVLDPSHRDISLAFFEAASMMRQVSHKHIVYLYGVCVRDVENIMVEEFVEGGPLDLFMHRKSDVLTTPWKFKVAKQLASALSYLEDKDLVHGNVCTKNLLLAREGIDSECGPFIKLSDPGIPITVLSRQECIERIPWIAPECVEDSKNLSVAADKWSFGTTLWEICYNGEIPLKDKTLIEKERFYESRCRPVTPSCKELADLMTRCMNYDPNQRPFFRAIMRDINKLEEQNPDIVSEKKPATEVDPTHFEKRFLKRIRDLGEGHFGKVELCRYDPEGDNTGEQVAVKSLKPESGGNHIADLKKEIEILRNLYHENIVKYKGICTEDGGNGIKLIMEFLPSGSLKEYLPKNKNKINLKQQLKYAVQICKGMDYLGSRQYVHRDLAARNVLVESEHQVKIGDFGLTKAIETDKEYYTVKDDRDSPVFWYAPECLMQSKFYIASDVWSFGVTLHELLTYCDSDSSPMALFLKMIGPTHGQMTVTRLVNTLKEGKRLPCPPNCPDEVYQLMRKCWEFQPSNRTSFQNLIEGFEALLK
Experiment: Inhibition of JAK1/JAK3 in human PBMC CD3+/CD8+ T cells assessed as reduction in IL7-stimulated STAT5 phosphorylation
Metric: pIC50
Reminder that pIC50 is minus the log10 of a molar concentration.

[Q] State its pIC50 for this compound: "C=C(C)C(=O)Nc1cccc(-c2ncnc3[nH]cc(C(=O)OCC)c23)c1"
[A] 6.55
